// provenance: ChEMBL document CHEMBL4007421

System: Liver
Assay: Intrinsic clearance in human liver microsomes at 2.5 uM assessed per gram of liver
Type: ADME, microsome
Values of CLint greater than or equal to 1 mL/min/g map to TRUE; values below map to FALSE.

INPUT: Confirm if CLint reported for the molecule `O=S(=O)(c1cc(F)cc(F)c1)c1cnc2c(F)cccc2c1-c1ccc(F)cc1` is 1 mL/min/g or above.
OUTPUT: FALSE

INPUT: Confirm if CLint reported for the molecule `O=S(=O)(c1ccc(F)c(F)c1)c1cnc2cc(F)ccc2c1-c1ccc(Cl)cc1` is 1 mL/min/g or above.
OUTPUT: FALSE

INPUT: Confirm if CLint reported for the molecule `O=S(=O)(c1ccc(F)c(F)c1)c1cnc2c(F)cccc2c1-c1ccc(F)cc1` is 1 mL/min/g or above.
OUTPUT: FALSE

INPUT: Confirm if CLint reported for the molecule `COc1cccc(-c2c(S(=O)(=O)c3ccc(C)c(C)c3)cnc3cc(F)ccc23)c1` is 1 mL/min/g or above.
OUTPUT: TRUE

INPUT: Confirm if CLint reported for the molecule `O=S(=O)(c1cc(F)cc(F)c1)c1cnc2cc(F)ccc2c1-c1ccc(Cl)cc1` is 1 mL/min/g or above.
OUTPUT: FALSE

INPUT: Confirm if CLint reported for the molecule `O=S(=O)(c1cc(Cl)cc(Cl)c1)c1cnc2cc(F)ccc2c1-c1ccc(F)cc1` is 1 mL/min/g or above.
OUTPUT: FALSE

INPUT: Confirm if CLint reported for the molecule `Cc1ccc(S(=O)(=O)c2cnc3ccccc3c2N2CCOCC2)cc1C` is 1 mL/min/g or above.
OUTPUT: TRUE

INPUT: Confirm if CLint reported for the molecule `O=S(=O)(c1ccc(F)c(Cl)c1)c1cnc2c(F)cccc2c1-c1ccc(F)cc1` is 1 mL/min/g or above.
OUTPUT: FALSE

INPUT: Confirm if CLint reported for the molecule `COc1cccc(S(=O)(=O)c2cnc3cc(F)ccc3c2-c2cccc(F)c2)c1` is 1 mL/min/g or above.
OUTPUT: TRUE

INPUT: Confirm if CLint reported for the molecule `Cc1ccc(S(=O)(=O)c2cnc3c(F)cccc3c2-c2ccc(F)cc2)cc1F` is 1 mL/min/g or above.
OUTPUT: TRUE

INPUT: Confirm if CLint reported for the molecule `O=S(=O)(c1ccc(F)c(Cl)c1)c1cnc2c(F)cccc2c1-c1ccccc1F` is 1 mL/min/g or above.
OUTPUT: TRUE

INPUT: Confirm if CLint reported for the molecule `O=S(=O)(c1ccc(F)cc1)c1cnc2c(F)cc(Cl)cc2c1-c1ccc(Cl)cc1` is 1 mL/min/g or above.
OUTPUT: FALSE

INPUT: Confirm if CLint reported for the molecule `Cc1ccc(S(=O)(=O)c2cnc3cc(F)ccc3c2-c2ccc(Cl)cc2)cc1C` is 1 mL/min/g or above.
OUTPUT: TRUE

INPUT: Confirm if CLint reported for the molecule `COc1cccc(-c2c(S(=O)(=O)c3cc(Cl)cc(Cl)c3)cnc3c(F)cccc23)c1` is 1 mL/min/g or above.
OUTPUT: TRUE

INPUT: Confirm if CLint reported for the molecule `COc1ccc(-c2c(S(=O)(=O)c3ccc(F)cc3)cnc3cc(F)ccc23)cc1` is 1 mL/min/g or above.
OUTPUT: TRUE

INPUT: Confirm if CLint reported for the molecule `O=S(=O)(c1cccc(F)c1)c1cnc2c(F)cccc2c1-c1ccccc1F` is 1 mL/min/g or above.
OUTPUT: FALSE

INPUT: Confirm if CLint reported for the molecule `O=S(=O)(c1cc(F)cc(F)c1)c1cnc2cc(F)ccc2c1-c1cccc(Cl)c1` is 1 mL/min/g or above.
OUTPUT: FALSE

INPUT: Confirm if CLint reported for the molecule `O=S(=O)(c1cccc(F)c1)c1cnc2cc(F)ccc2c1-c1ccc(F)cc1` is 1 mL/min/g or above.
OUTPUT: FALSE

INPUT: Confirm if CLint reported for the molecule `O=S(=O)(c1ccc(F)c(F)c1)c1cnc2c(F)cccc2c1-c1cccc(Cl)c1` is 1 mL/min/g or above.
OUTPUT: TRUE

INPUT: Confirm if CLint reported for the molecule `Cc1ccc(S(=O)(=O)c2cnc3cc(F)ccc3c2-c2cccc(F)c2)cc1F` is 1 mL/min/g or above.
OUTPUT: FALSE

###

Assay: Plasma concentration in ip dosed Wistar rat at anxiolytic MED administered as suspension after 45 mins during Vogel punished drinking conflict test
Type: ADME, organism-based
result-type: concentration at 0.75 h (nM)
Express it in nM; write the number only.

INPUT: Returns the measured concentration at 0.75 h for the input molecule. Input: `O=S(=O)(c1cc(Cl)cc(Cl)c1)c1cnc2cc(F)ccc2c1-c1cccc(F)c1`
OUTPUT: 90.6

INPUT: Returns the measured concentration at 0.75 h for the input molecule. Input: `O=S(=O)(c1ccc(F)c(Cl)c1)c1cnc2cc(F)ccc2c1-c1ccc(F)cc1`
OUTPUT: 71

INPUT: Returns the measured concentration at 0.75 h for the input molecule. Input: `O=S(=O)(c1cc(Cl)cc(Cl)c1)c1cnc2c(F)cccc2c1-c1ccc(F)cc1`
OUTPUT: 119

INPUT: Returns the measured concentration at 0.75 h for the input molecule. Input: `O=S(=O)(c1ccc(F)c(F)c1)c1cnc2c(F)cccc2c1-c1ccc(Cl)cc1`
OUTPUT: 59.7

INPUT: Returns the measured concentration at 0.75 h for the input molecule. Input: `O=S(=O)(c1cc(Cl)cc(Cl)c1)c1cnc2cc(F)ccc2c1-c1ccc(Cl)cc1`
OUTPUT: 377

###

result-type: pKi
Units for pKi: none; it is -log10 of a concentration expressed in mol/L.

INPUT: I'm curious: which pKi was measured for `O=S(=O)(c1cc(Cl)cc(Cl)c1)c1cnc2cc(F)ccc2c1-c1cccc(F)c1` tested on UniProtKB P31424?
OUTPUT: 7.97

INPUT: I'm curious: which pKi was measured for `O=S(=O)(c1ccc(F)cc1)c1cnc2c(F)cccc2c1-c1ccc(Cl)cc1` tested on UniProtKB P31424?
OUTPUT: 7.80

INPUT: I'm curious: which pKi was measured for `O=S(=O)(c1cc(F)cc(F)c1)c1cnc2c(F)cccc2c1-c1ccc(F)cc1` tested on UniProtKB P31424?
OUTPUT: 7.88

INPUT: I'm curious: which pKi was measured for `O=S(=O)(c1cc(Cl)cc(Cl)c1)c1cnc2c(F)cccc2c1-c1ccc(F)cc1` tested on UniProtKB P31424?
OUTPUT: 8.17

###

Biological target: Metabotropic glutamate receptor 5 (Homo sapiens)
Sequence (P41594 whole entry): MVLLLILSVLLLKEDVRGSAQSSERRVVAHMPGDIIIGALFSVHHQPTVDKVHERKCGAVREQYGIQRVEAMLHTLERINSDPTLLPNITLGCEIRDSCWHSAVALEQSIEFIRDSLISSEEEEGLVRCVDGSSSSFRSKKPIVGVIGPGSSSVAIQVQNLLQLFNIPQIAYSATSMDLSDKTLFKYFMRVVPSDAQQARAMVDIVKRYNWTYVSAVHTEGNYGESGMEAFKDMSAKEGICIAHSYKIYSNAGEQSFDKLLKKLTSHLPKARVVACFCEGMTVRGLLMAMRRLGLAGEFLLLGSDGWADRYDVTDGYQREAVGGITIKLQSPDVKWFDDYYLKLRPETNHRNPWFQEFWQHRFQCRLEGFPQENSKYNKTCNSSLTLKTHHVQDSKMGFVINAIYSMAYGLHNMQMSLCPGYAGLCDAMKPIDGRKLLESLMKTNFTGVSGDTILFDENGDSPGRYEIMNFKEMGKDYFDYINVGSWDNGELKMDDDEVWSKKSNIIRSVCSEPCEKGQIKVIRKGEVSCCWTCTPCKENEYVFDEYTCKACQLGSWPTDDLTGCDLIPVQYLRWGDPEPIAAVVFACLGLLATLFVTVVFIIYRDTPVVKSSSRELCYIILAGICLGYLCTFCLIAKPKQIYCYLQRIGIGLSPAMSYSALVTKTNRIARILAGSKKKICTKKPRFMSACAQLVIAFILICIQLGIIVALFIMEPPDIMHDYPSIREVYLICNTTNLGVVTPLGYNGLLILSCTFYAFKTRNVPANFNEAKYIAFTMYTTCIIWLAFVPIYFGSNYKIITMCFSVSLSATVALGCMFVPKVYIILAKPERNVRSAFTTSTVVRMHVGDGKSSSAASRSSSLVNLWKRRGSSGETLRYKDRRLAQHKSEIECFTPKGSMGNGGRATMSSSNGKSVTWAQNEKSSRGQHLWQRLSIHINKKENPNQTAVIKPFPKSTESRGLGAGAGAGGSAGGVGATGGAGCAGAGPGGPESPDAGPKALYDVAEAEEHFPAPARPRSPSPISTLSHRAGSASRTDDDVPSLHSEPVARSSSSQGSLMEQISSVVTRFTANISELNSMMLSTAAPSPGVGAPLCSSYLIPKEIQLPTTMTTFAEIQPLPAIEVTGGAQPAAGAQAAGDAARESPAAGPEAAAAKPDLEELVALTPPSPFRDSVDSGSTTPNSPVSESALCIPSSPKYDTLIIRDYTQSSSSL
Test: Negative allosteric modulation of human mGluR5a expressed in CHO cells assessed as reduction in DHPG-induced cytosolic Ca2+ influx after 10 to 20 mins by fluo-4/AM-dye based fluorometric analysis
Record form. Attribute: IC50. Fill in for each entry.
Express it in nM; write the number only.

INPUT: Returns the measured IC50 for the input compound. Input: `O=S(=O)(c1cc(F)cc(F)c1)c1cnc2cc(F)ccc2c1-c1cccc(F)c1`
OUTPUT: 74

INPUT: Returns the measured IC50 for the input compound. Input: `O=S(=O)(c1ccc(F)c(F)c1)c1cnc2cc(F)ccc2c1-c1ccc(Cl)cc1`
OUTPUT: 22

INPUT: Returns the measured IC50 for the input compound. Input: `O=S(=O)(c1cc(Cl)cc(Cl)c1)c1cnc2cc(F)ccc2c1-c1cccc(F)c1`
OUTPUT: 35

INPUT: Returns the measured IC50 for the input compound. Input: `O=S(=O)(c1ccc(F)c(Cl)c1)c1cnc2cc(F)ccc2c1-c1ccc(Cl)cc1`
OUTPUT: 27

INPUT: Returns the measured IC50 for the input compound. Input: `N#Cc1cccc(S(=O)(=O)c2cnc3cc(F)ccc3c2-c2ccc(F)cc2)c1`
OUTPUT: 20

INPUT: Returns the measured IC50 for the input compound. Input: `O=S(=O)(c1cc(F)cc(F)c1)c1cnc2cc(F)ccc2c1-c1ccc(F)cc1`
OUTPUT: 25

###

Test system: Liver
Assay: Intrinsic clearance in human liver microsomes at 2.5 uM assessed per gram of liver
Format: ADME, microsome
Record form. Attribute: CLint. Fill in for each entry.
Express it in mL/min/g; write the number only.

INPUT: Returns the measured CLint for the input compound. Input: `Cc1ccc(S(=O)(=O)c2cnc3cc(F)ccc3c2-c2cccc(F)c2)cc1C`
OUTPUT: 3.71

INPUT: Returns the measured CLint for the input compound. Input: `COc1ccc(S(=O)(=O)c2cnc3c(F)cccc3c2-c2cccc(Cl)c2)cc1`
OUTPUT: 2.75

INPUT: Returns the measured CLint for the input compound. Input: `COc1cccc(-c2c(S(=O)(=O)c3cccc(F)c3)cnc3c(F)cccc23)c1`
OUTPUT: 2.6

INPUT: Returns the measured CLint for the input compound. Input: `O=S(=O)(c1cccc(F)c1)c1cnc2c(F)cccc2c1-c1cccc(F)c1`
OUTPUT: 1.14

INPUT: Returns the measured CLint for the input compound. Input: `COc1ccc(-c2c(S(=O)(=O)c3cc(Cl)cc(Cl)c3)cnc3c(F)cccc23)cc1`
OUTPUT: 2.11

INPUT: Returns the measured CLint for the input compound. Input: `O=S(=O)(c1cc(Cl)cc(Cl)c1)c1cnc2c(F)cccc2c1-c1ccc(F)cc1`
OUTPUT: 1.01

INPUT: Returns the measured CLint for the input compound. Input: `O=S(=O)(c1cc(F)cc(F)c1)c1cnc2cc(F)ccc2c1-c1ccc(F)cc1`
OUTPUT: 0.01

INPUT: Returns the measured CLint for the input compound. Input: `O=S(=O)(c1ccc(F)c(F)c1)c1cnc2cc(F)ccc2c1-c1cccc(Cl)c1`
OUTPUT: 0.38

INPUT: Returns the measured CLint for the input compound. Input: `COc1ccc(-c2c(S(=O)(=O)c3ccc(F)c(F)c3)cnc3c(F)cccc23)cc1`
OUTPUT: 2.12

INPUT: Returns the measured CLint for the input compound. Input: `N#Cc1cccc(S(=O)(=O)c2cnc3c(F)cccc3c2-c2ccccc2F)c1`
OUTPUT: 0.66

INPUT: Returns the measured CLint for the input compound. Input: `Cc1ccc(S(=O)(=O)c2cnc3c(F)cccc3c2-c2ccc(Cl)cc2)cc1F`
OUTPUT: 2.2

INPUT: Returns the measured CLint for the input compound. Input: `Cc1cccc(C#Cc2ccccc2)n1`
OUTPUT: 1.61

INPUT: Returns the measured CLint for the input compound. Input: `N#Cc1ccc2ncc(S(=O)(=O)c3ccc(F)cc3)c(-c3ccc(Cl)cc3)c2c1`
OUTPUT: 0.01

INPUT: Returns the measured CLint for the input compound. Input: `O=S(=O)(c1ccc(F)cc1)c1cnc2cc(Cl)c(F)cc2c1-c1ccc(Cl)cc1`
OUTPUT: 0.01

INPUT: Returns the measured CLint for the input compound. Input: `O=S(=O)(c1cc(Cl)cc(Cl)c1)c1cnc2cc(F)ccc2c1-c1ccc(Cl)cc1`
OUTPUT: 0.13

INPUT: Returns the measured CLint for the input compound. Input: `O=S(=O)(c1cc(F)cc(F)c1)c1cnc2c(F)cccc2c1-c1cccc(Cl)c1`
OUTPUT: 0.64

INPUT: Returns the measured CLint for the input compound. Input: `COc1cccc(S(=O)(=O)c2cnc3cc(F)ccc3c2-c2cccc(Cl)c2)c1`
OUTPUT: 2.97

INPUT: Returns the measured CLint for the input compound. Input: `COc1ccc(S(=O)(=O)c2cnc3cc(F)ccc3c2-c2cccc(Cl)c2)cc1Cl`
OUTPUT: 1.19

INPUT: Returns the measured CLint for the input compound. Input: `O=S(=O)(c1ccc(F)cc1)c1cnc2c(F)cccc2c1-c1cccc(Cl)c1`
OUTPUT: 1.21

INPUT: Returns the measured CLint for the input compound. Input: `O=S(=O)(c1ccc(F)c(Cl)c1)c1cnc2cc(F)ccc2c1-c1cccc(Cl)c1`
OUTPUT: 0.66

INPUT: Returns the measured CLint for the input compound. Input: `COc1ccc(-c2c(S(=O)(=O)c3cc(F)cc(F)c3)cnc3cc(F)ccc23)cc1`
OUTPUT: 1.51

INPUT: Returns the measured CLint for the input compound. Input: `N#Cc1cccc(S(=O)(=O)c2cnc3c(F)cccc3c2-c2cccc(F)c2)c1`
OUTPUT: 0.34

INPUT: Returns the measured CLint for the input compound. Input: `COc1ccc(S(=O)(=O)c2cnc3cc(F)ccc3c2-c2ccc(F)cc2)cc1`
OUTPUT: 1.71

INPUT: Returns the measured CLint for the input compound. Input: `COc1cccc(-c2c(S(=O)(=O)c3cc(F)cc(F)c3)cnc3c(F)cccc23)c1`
OUTPUT: 2.76

INPUT: Returns the measured CLint for the input compound. Input: `N#Cc1cccc(S(=O)(=O)c2cnc3cc(F)ccc3c2-c2cccc(F)c2)c1`
OUTPUT: 0.78

INPUT: Returns the measured CLint for the input compound. Input: `O=S(=O)(c1ccc(F)cc1)c1cnc2cc(F)ccc2c1-c1cccc(F)c1`
OUTPUT: 0.95

INPUT: Returns the measured CLint for the input compound. Input: `Cc1ccc(S(=O)(=O)c2cnc3cc(F)ccc3c2-c2ccc(F)cc2)cc1F`
OUTPUT: 2.33

INPUT: Returns the measured CLint for the input compound. Input: `COc1cccc(-c2c(S(=O)(=O)c3ccc(C)c(F)c3)cnc3c(F)cccc23)c1`
OUTPUT: 4.02

INPUT: Returns the measured CLint for the input compound. Input: `O=S(=O)(c1ccc(F)cc1)c1cnc2cc(Cl)ccc2c1-c1ccc(Cl)cc1`
OUTPUT: 0.21

INPUT: Returns the measured CLint for the input compound. Input: `O=S(=O)(c1cccc(F)c1)c1cnc2c(F)cccc2c1-c1cccc(Cl)c1`
OUTPUT: 0.56

INPUT: Returns the measured CLint for the input compound. Input: `COc1ccc(-c2c(S(=O)(=O)c3ccc(F)cc3)cnc3c(F)cccc23)cc1`
OUTPUT: 2.41
